- tgt: GST-MCL-1 (Homo sapiens, UniProt Q07820)
- Sequence (Q07820 whole entry): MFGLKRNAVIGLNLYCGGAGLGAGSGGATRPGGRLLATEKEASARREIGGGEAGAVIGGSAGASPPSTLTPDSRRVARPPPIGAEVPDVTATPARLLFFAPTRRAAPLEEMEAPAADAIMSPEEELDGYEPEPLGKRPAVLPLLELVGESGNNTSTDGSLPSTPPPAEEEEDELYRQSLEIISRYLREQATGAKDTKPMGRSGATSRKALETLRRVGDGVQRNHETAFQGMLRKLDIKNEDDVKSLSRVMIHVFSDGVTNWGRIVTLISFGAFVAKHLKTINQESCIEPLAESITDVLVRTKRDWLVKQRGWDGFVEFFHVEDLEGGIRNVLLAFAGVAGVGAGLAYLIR
- assay.notes: TR-FRET MCL-1 binding assay (competition with probe F-Bak)
- condition.context: without HS; read-out: MCL-1 Binding Ki
quantity.measured: pKi
Keep it numeric: pKi is minus log10 of the concentration in mol/L.

Previously resolved entries follow.
>  <molecule>
COCCOCCOCCOCCOCCOCCOCCC(=O)N1CCC[C@@H]1c1nccc(COc2ccc3cc2C[C@H](C(=O)O)Oc2ncnc4sc(-c5ccc(F)cc5)c(c24)-c2ccc(c(Cl)c2C)O[C@H](CN2CCN(C)CC2)CO3)n1

>  <quantity.measured>
pKi

>  <endpoint.value>
7.39

$$$$
>  <molecule>
Cc1c(Cl)c2c(Cl)c(C)c1-c1c(-c3ccc(F)cc3)sc3ncnc(c13)O[C@@H](C(=O)O)Cc1cc(ccc1OCc1ccnc(C3CCS(=O)(=O)C3)n1)OC[C@@H](CN1CCN(C)CC1)O2 (stereo partly shown)

>  <quantity.measured>
pKi

>  <endpoint.value>
10.43

$$$$
>  <molecule>
Cc1c(Cl)c2c(Cl)c(C)c1-c1c(-c3ccc(F)cc3)sc3ncnc(c13)O[C@@H](C(=O)O)Cc1cc(ccc1OCc1ccnc(-c3ccccc3S(C)(=N)=O)n1)OCC(CN1CCN(C)CC1)O2 (stereo partly shown)

>  <quantity.measured>
pKi

>  <endpoint.value>
10.68

$$$$
>  <molecule>
Cc1c(Cl)c2c(Cl)c(C)c1-c1c(-c3ccc(F)cc3)sc3ncnc(c13)O[C@@H](C(=O)O)Cc1cc(ccc1OCc1ccnc(-c3ccccc3OC[C@H](O)CO)n1)OC[C@@H](CN1CCN(C)CC1)O2

>  <quantity.measured>
pKi

>  <endpoint.value>
10.74

$$$$
>  <molecule>
COCCOCCOCCOCCN(CCOCCOCCOCCOC)c1nccc(COc2ccc3cc2C[C@H](C(=O)O)Oc2ncnc4sc(-c5ccc(F)cc5)c(c24)-c2c(C)c(Cl)c(c(Cl)c2C)O[C@H](CN2CCN(C)CC2)CO3)n1

>  <quantity.measured>
pKi

>  <endpoint.value>
9.98

$$$$

Notebook: pull reported pKi for GST-MCL-1 (Homo sapiens, UniProt Q07820), entry COCCOCCOCCOCC1(C)CC=C(c2nccc(COc3ccc4cc3C[C@H](C(=O)O)Oc3ncnc5sc(-c6ccc(F)cc6)c(c35)-c3c(C)c(Cl)c(c(Cl)c3C)O[C@H](CN3CCN(C)CC3)CO4)n2)CC1 (single isomer, unassigned) [Example 119]
11.40

Kindly state the measured pKi obtained for COCCOCCOCCOCC1(F)CC=C(c2nccc(COc3ccc4cc3C[C@H](C(=O)O)Oc3ncnc5sc(C6=CCCC6)c(c35)-c3c(C)c(Cl)c(c(Cl)c3C)O[C@H](CN3CCN(C)CC3)CO4)n2)CC1 (single isomer, unassigned) with GST-MCL-1 (Homo sapiens, UniProt Q07820).
10.43

I'm curious: which pKi was measured for COCCOCCOCCOCCOCC1(F)CC=C(c2nccc(COc3ccc4cc3C[C@H](C(=O)O)Oc3ncnc5sc(-c6ccc(F)cc6)c(c35)-c3c(C)c(Cl)c(c(Cl)c3C)O[C@H](CN3CCN(C)CC3)CO4)n2)CC1 (single isomer, unassigned) [Example 114] tested on GST-MCL-1 (Homo sapiens, UniProt Q07820)?
10.74

Under GST-MCL-1 (Homo sapiens, UniProt Q07820): pKi value of Cc1c(Cl)c2c(Cl)c(C)c1-c1c(-c3ccc(F)cc3)sc3ncnc(c13)O[C@@H](C(=O)O)Cc1cc(ccc1OCc1ccnc(N3CCC(C)(N4CCOCC4)CC3)n1)OC[C@@H](CN1CCN(C)CC1)O2 ?
7.96

So what pKi did COCCOCCOCCOCCOCCOC1(c2nccc(COc3ccc4cc3C[C@H](C(=O)O)Oc3ncnc5sc(-c6ccc(F)cc6)c(c35)-c3c(C)c(Cl)c(c(Cl)c3C)O[C@H](CN3CCN(C)CC3)CO4)n2)CCC1 get with GST-MCL-1 (Homo sapiens, UniProt Q07820)?
10.41

Give the reported pKi for COCCOCCOCCOc1ccc(-c2nccc(COc3ccc4cc3C[C@H](C(=O)O)Oc3ncnc5sc(-c6ccc(F)cc6)c(c35)-c3ccc(c(Cl)c3C)O[C@H](CN3CCN(C)CC3)CO4)n2)cc1 (atropisomer, axis not shown) (system: GST-MCL-1 (Homo sapiens, UniProt Q07820)).
10.27

Form field: pKi recorded for CO[C@@H]1CO[C@H]2[C@@H]1OC[C@H]2Oc1nccc(COc2ccc3cc2C[C@H](C(=O)O)Oc2ncnc4sc(-c5ccc(F)cc5)c(c24)-c2c(C)c(Cl)c(c(Cl)c2C)O[C@H](CN2CCN(C)CC2)CO3)n1 with GST-MCL-1 (Homo sapiens, UniProt Q07820) (enter value)
12.00
